Data credit: patent US7005505

# SYSTEM TESTED: T1, FLT-1 IgG (UniProt P17948 27-758)
# T1 construct: Construct only cited from Park et al. 1994; also called FLT-IgG; FLT-1 receptor-IgG chimera; not shown: IgG part of the chimera (captured by anti-human IgG Fc)
# T1 sequence (P17948 27-758): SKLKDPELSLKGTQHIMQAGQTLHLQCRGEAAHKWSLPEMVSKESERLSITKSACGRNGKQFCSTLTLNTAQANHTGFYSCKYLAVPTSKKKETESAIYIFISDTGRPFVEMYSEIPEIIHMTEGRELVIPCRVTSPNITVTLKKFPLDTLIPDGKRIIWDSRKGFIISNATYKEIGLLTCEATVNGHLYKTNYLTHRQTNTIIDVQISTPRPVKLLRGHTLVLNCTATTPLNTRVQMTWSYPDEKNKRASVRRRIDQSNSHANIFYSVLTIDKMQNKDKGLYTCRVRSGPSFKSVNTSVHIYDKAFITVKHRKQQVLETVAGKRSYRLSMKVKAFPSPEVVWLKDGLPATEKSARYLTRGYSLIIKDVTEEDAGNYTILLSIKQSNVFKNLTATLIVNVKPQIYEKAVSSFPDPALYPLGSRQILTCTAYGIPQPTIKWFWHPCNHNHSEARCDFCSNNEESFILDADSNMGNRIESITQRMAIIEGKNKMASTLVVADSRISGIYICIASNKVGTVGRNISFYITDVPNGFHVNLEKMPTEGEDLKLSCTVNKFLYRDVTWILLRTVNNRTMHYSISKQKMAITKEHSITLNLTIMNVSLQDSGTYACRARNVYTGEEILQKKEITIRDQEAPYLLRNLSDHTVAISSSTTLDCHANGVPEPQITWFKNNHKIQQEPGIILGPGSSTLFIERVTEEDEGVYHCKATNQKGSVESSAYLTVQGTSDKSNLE
# PROTOCOL DESCRIPTION: competition with 125I-VEGF165 for FLT-1-IgG, radioligand plate assay, no heparin
# Procedure: After the supernatant was discarded, the wells were washed three times in washing buffer (0.01% Tween 80 in PBS). The plate was blocked (300 µl/well) for one hr in assay buffer (0.5% BSA, 0.03% Tween 80, 0.01% Thimerosal in PBS). The supernatant was discarded and the wells were washed. […] The supernatant was discarded, the plate washed, and individual microtiter wells were counted by gamma scintigraphy (LKB model 1277).
REPORTED PROPERTY: IC50

These recorded examples may help you get a feel for the data.
binder="K48A VEGF (ligand, VEGF165 mutant from 293 cells, conditioned medium) APMAEGGGQNHHEVVKFMDVYQRSYCHPIETLVDIFQEYPDEIEYIFAPSCVPLMRCGGCCNDEGLECVPTEESNITMQIMRIKPHQGQHIGEMSFLQHNKCECRPKKDRARQENPCGPCSERRKHLFVQDPQTCKCSCKNTDSRCKARQLELNERTCRCDKPRR" readout_value="0.026 nM"
binder="N75A VEGF (ligand, Unglycosylated form of VEGF from 293 cells, conditioned medium) APMAEGGGQNHHEVVKFMDVYQRSYCHPIETLVDIFQEYPDEIEYIFKPSCVPLMRCGGCCNDEGLECVPTEESAITMQIMRIKPHQGQHIGEMSFLQHNKCECRPKKDRARQENPCGPCSERRKHLFVQDPQTCKCSCKNTDSRCKARQLELNERTCRCDKPRR" readout_value="0.022 nM"

Lab note: next binder to report on.
Recorded IC50 for K107A, K108A VEGF (ligand, VEGF165 mutant from 293 cells, conditioned medium) APMAEGGGQNHHEVVKFMDVYQRSYCHPIETLVDIFQEYPDEIEYIFKPSCVPLMRCGGCCNDEGLECVPTEESNITMQIMRIKPHQGQHIGEMSFLQHNKCECRPAADRARQENPCGPCSERRKHLFVQDPQTCKCSCKNTDSRCKARQLELNERTCRCDKPRR , please? 0.066 nM
